Record form. Attribute: drug sensitivity score. Fill in for each entry.
system: U2OS; assay: drug sensitivity score (DSS) for viability; higher = more toxic; extreme values may be limits of the assay; conditions: 72 h
Answer with the value's number alone.

Item: N#Cc1ccc(NCCNCC(=O)N2CCC[C@H]2C#N)nc1 [NVP-DPP728] | System: U2OS | drug sensitivity score: 0

Item: CC(C)=CCC[C@](C)(O)[C@@H]1CC=C(C)CC1 [levomenol] | System: U2OS | drug sensitivity score: 0

Item: CCN1CCN(C(=O)N[C@@H](C(=O)N[C@@H]2C(=O)N3[C@@H]2SC(C)(C)[C@@H]3C(=O)O)c2ccccc2)C(=O)C1=O [piperacillin] | System: U2OS | drug sensitivity score: 0

Item: CC(C)c1ccccc1Cc1cc(C(=O)Nc2ccc(S(=O)(=O)c3ccccc3C(C)(C)C)cc2)c(O)c(O)c1O [TW-37] | System: U2OS | drug sensitivity score: 13

Item: CCOC(=O)C1=C(N)Oc2ccc(Br)cc2C1C(C#N)C(=O)OCC (stereo unspecified) [HA-14-1] | System: U2OS | drug sensitivity score: 0

Item: COc1ccc(C(=O)/C(Cc2cc(OC)c(OC)c(OC)c2)=C(\C(=O)O)c2ccc3c(c2)OCO3)cc1 | System: U2OS | drug sensitivity score: 2.8

Item: CCC(=O)N1CCN(c2ccc(-n3c(=O)ccc4cnc5ccc(-c6cnc7ccccc7c6)cc5c43)cc2C(F)(F)F)CC1 [torin-1] | System: U2OS | drug sensitivity score: 12

Item: O=C1C(O)=C([C@H]2CC[C@H](c3ccc(Cl)cc3)CC2)C(=O)c2ccccc21 [atovaquone] | System: U2OS | drug sensitivity score: 0

Item: c1cc2c(cc1[C@H]1OC[C@H]3[C@@H]1CO[C@@H]3c1ccc3c(c1)OCO3)OCO2 [sesamin] | System: U2OS | drug sensitivity score: 0

Item: CCCCCCCCCCCCCCCC(=O)C(F)(F)F [PACOCF3] | System: U2OS | drug sensitivity score: 0

Item: O=C1C2CCN(CC2)C1(CO)CO [PRIMA1] | System: U2OS | drug sensitivity score: 1.6
